measurementTarget: T1, chimeric Leptin (Hu)-EPO (Mu) receptor presented by the 32D OBECA cell line (human; murine, UniProt P48357 22-839; P14753 250-507)
T1 sequence (looked up): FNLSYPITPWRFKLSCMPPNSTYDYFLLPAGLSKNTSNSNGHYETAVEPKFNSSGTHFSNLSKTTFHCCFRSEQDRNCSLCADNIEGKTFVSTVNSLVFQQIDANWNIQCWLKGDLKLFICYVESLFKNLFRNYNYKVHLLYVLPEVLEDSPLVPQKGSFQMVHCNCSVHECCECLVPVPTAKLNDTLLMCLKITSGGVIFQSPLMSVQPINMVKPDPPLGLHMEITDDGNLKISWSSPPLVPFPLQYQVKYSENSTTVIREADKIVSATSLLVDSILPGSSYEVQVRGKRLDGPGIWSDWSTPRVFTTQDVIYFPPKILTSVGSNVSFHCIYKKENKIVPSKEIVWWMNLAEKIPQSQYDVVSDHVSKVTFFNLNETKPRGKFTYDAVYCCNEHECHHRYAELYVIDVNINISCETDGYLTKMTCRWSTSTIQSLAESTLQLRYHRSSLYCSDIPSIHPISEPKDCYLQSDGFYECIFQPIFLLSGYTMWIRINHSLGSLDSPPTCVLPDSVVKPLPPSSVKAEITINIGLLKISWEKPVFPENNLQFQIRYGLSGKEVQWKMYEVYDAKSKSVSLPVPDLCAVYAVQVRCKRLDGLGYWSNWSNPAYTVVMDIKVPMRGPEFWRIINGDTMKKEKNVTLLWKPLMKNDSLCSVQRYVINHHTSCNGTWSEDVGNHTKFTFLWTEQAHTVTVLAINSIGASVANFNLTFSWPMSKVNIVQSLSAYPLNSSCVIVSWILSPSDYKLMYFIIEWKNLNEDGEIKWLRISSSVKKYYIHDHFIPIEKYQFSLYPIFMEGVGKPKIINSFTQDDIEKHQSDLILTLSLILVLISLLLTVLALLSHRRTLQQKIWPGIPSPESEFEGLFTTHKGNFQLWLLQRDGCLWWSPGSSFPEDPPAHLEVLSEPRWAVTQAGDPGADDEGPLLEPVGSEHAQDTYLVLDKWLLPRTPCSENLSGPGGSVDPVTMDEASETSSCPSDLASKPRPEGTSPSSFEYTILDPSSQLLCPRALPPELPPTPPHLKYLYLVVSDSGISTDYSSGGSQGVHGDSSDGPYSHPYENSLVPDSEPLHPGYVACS
assayMethodText: cell-based or functional assay
Below: a set of entries, each annotated with reported EC50 (Obeca Stat 5 functional assay).
The response must be a number in nM with no trailing unit.

Example results:
binder | EC50 (Obeca Stat 5 functional assay), nM
Seal leptin with N-terminal methionine, and with amino acids 93-119 replaced with amino acids 95-121 (loop 3-4) of metreleptin (ligand, Seal-human chimeric leptin; also called Compound 42; Cmpd 42) MPIQRVQDDTKTLIKTIITRINDISPPQGVCSRPRVAGLDFIPRVQSVRTLSGMDQILATYQQILTSLQSRSVVQIANDLANLRALLRLLASAKSCHLPWASGLETLDSLGGVLEASGYSTEVVALSRLKAALQDMLRQLDRNPGC | 0.043
Seal leptin with N-terminal methionine, and with amino acids 3-22 replaced with amino acids 5-24 (helix 1) of metreleptin, and amino acids 72-93 replaced with … (ligand, Seal-human chimeric leptin; also called Compound 45) MPIQKVQDDTKTLIKTIVTRINDISPPQGVCSRPRVAGLDFIPRVQSVRTLSGMDQILATYQQILTSLQSRNVIQISNDLENLRDLLHVLAFSKSCPVPRARGSDTIKGLGNVLRASVHSTEVVALSRLKAALQDMLRQLDRNPGC | 0.029
Seal leptin with N-terminal methionine, and with amino acids 30 and 93-119 replaced with amino acids 32 and 95-121 (loop 3-4) of metreleptin (ligand, Seal-human chimeric leptin; also called Compound 49; Cmpd 49) MPIQRVQDDTKTLIKTIITRINDISPPQGVSSRPRVAGLDFIPRVQSVRTLSGMDQILATYQQILTSLQSRSVVQIANDLANLRALLRLLASAKSCHLPWASGLETLDSLGGVLEASGYSTEVVALSRLKAALQDMLRQLDRNPGC | 0.034
Seal leptin with N-terminal methionine, and with amino acids 3-22 replaced with amino acids 5-24 (helix 1) of metreleptin (ligand) MPIQKVQDDTKTLIKTIVTRINDISPPQGVCSRPRVAGLDFIPRVQSVRTLSGMDQILATYQQILTSLQSRSVVQIANDLANLRALLRLLASAKSCPVPRARGSDTIKGLGNVLRASVHSTEVVALSRLKAALQDMLRQLDRNPGC | 0.095
Seal leptin with N-terminal methionine, and with amino acids 71-92 replaced with amino acids 73-94 (helix 3) of metreleptin (ligand, Seal-human chimeric leptin; also called Compound 41; Cmpd 41) MPIQRVQDDTKTLIKTIITRINDISPPQGVCSRPRVAGLDFIPRVQSVRTLSGMDQILATYQQILTSLQSRNVIQISNDLENLRDLLHVLAFSKSCPVPRARGSDTIKGLGNVLRASVHSTEVVALSRLKAALQDMLRQLDRNPGC | 0.028
Seal leptin (ligand, also called Compound 38; Cmpd 38) PIQRVQDDTKTLIKTIITRINDISPPQGVCSRPRVAGLDFIPRVQSVRTLSGMDQILATYQQILTSLQSRSVVQIANDLANLRALLRLLASAKSCPVPRARGSDTIKGLGNVLRASVHSTEVVALSRLKAALQDMLRQLDRNPGC | 0.019

Reported EC50 (Obeca Stat 5 functional assay) for Seal leptin with N-terminal methionine, with amino acids 23-49 replaced with amino acids 25-51 (AB loop) of metreleptin, with amino acids 93-119 replaced with … (ligand) MPIQRVQDDTKTLIKTIITRINDISHTQSVSSKQKVTGLDFIPGLHPILTLSGMDQILATYQQILTSLQSRNVIQISNDLENLRDLLHVLAFSKSCHLPWASGLETLDSLGGVLEASGYSTEVVALSRLKAALQDMLRQLDRNPGC : what is it?
0.044
